SYSTEM: Interleukin-8 (IL8, CXCL8), C-terminal His-tagged (Homo sapiens, UniProt P10145 SEQ:1-72)
Sequence (P10145 28-99): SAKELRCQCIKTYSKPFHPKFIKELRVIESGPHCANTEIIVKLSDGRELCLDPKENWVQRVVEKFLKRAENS
EXPERIMENT NOTES: TR-FRET; bead flow 19 nM
CONDITION LABEL: tags: C-terminal 6xHis (Sino Biological); label: Alexa Fluor 647
METRIC NAME: pKd
Keep in mind that pKd stands for -log10 of concentration in molar terms.

Given item UUGCCCUUUGAUCGUACCGAGGCGGGGAAGUACGAU (ssRNA, 2'-F G, 2'-OMe A/C/U, 5' C6NH2, 3' idT) [Aptamer 24] , the value recorded as its pKd is 8.05
